# target: p110δ/p85α (Homo sapiens, UniProt O00329)
# Sequence (O00329 whole entry): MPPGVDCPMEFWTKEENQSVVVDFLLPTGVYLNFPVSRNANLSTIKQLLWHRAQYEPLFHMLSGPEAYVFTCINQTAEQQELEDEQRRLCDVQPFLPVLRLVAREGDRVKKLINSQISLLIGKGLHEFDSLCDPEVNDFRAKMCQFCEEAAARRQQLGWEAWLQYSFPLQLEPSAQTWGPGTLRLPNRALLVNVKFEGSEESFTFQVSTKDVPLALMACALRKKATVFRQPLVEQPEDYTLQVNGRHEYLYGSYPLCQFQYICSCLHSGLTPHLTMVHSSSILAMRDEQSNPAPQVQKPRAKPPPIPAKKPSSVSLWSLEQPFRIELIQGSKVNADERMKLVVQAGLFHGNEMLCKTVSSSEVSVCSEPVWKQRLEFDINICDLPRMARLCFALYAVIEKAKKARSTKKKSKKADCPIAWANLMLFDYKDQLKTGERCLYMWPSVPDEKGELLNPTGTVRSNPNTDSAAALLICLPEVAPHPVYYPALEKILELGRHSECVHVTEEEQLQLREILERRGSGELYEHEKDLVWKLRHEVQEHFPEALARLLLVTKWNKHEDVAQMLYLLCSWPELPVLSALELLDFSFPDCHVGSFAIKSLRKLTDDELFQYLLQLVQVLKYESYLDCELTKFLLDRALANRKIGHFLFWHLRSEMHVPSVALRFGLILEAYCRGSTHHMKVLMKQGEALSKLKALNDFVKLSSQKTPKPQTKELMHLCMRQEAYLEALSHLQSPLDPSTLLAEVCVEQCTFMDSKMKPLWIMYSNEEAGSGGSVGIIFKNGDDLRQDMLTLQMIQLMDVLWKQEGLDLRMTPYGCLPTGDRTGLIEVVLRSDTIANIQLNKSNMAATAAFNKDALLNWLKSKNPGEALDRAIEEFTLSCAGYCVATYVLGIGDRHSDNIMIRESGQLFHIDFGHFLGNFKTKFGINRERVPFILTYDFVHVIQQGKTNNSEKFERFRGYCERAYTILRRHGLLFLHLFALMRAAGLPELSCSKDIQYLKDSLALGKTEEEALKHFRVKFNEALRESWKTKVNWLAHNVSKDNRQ
# Sequence (P27986 whole entry partner): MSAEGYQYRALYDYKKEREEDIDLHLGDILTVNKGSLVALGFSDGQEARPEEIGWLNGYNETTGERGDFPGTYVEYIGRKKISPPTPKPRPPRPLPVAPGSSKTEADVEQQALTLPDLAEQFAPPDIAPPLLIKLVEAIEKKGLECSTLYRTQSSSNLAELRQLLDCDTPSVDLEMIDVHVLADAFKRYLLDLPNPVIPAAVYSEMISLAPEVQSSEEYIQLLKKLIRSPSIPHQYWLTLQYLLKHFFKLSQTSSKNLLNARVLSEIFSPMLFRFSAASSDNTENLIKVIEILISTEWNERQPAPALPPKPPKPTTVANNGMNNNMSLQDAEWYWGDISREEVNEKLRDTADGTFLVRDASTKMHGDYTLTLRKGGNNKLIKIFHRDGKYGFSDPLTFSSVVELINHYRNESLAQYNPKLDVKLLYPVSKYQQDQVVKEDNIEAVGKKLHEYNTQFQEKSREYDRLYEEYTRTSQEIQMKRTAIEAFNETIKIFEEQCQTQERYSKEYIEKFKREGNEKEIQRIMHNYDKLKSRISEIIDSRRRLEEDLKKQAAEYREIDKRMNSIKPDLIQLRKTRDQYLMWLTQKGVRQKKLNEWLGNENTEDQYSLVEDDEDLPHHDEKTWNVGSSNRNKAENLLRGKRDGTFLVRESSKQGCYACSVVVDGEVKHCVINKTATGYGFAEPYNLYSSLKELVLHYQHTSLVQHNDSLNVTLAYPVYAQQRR
# test_details: Transcreener KINASE Assay, kinase inhibition of p110δ/p85α
# run_conditions: read-out: PI3Kδ IC50
pIC50: −log10 of the molar value.
quantity_measured: pIC50

a. CC(=O)c1cnc(N)nc1N1CCC[C@H]1c1nn2ccc(Cl)c2c(=O)n1-c1ccccc1 [Compound 369]
b. Cc1nc(N)nc(N2C[C@H](C)[C@H]2c2nn3ccc(Cl)c3c(=O)n2-c2ccccc2)n1 [Compound 469]
c. Nc1ccc(-c2n[nH]c3ncnc(N4CC[C@H]4c4nn5ccc(Cl)c5c(=O)n4-c4ccccc4)c23)cn1 [Compound 169]
d. Nc1nc2c(c(N3CCC[C@H]3c3nn4ccc(Cl)c4c(=O)n3-c3ccccc3)n1)CCC2 [Compound 246]
e. N#Cc1c[nH]c2ncnc(N3C[C@@H](C#N)C[C@H]3c3nn4ccc(Cl)c4c(=O)n3-c3ccccc3)c12 [Compound 360]
*Q* Hey, quick one: sort these by pIC50, largest value first please. Would you mind listing the labels in the order requested?
*A* e, a, c, b, d
(e: 9.00, a: 8.70, c: 8.40, b: 7.72, d: 6.25)
